Source listed as PubChem BioAssay.

tested on: XIP peptide (Xip251-270); test: small-molecule binders of XIP peptide, primary screen, biochemical, small-molecule microarray, fluorescence 635/667 nm, 0.5 µg/mL protein (AID 1183); settings: small-molecule microarray binding, fluorescence 635 nm; higher = more signal
Attribute measured: composite z-score
Quick one: just the number, no unit, thanks!

stdin: Provide value of composite z-score for this record tested with XIP peptide (Xip251-270): COCCCN1C(=O)[C@@]2(Cc3ccccc31)c1ccccc1C(=O)N(Cc1ccccc1C(F)(F)F)[C@H]2c1ccc(CO)cc1
stdout: 0.55

stdin: Provide value of composite z-score for this record tested with XIP peptide (Xip251-270): C=C(C)C1C(=C)CN([C@H](CO)c2ccccc2)C1=O (some centres undefined)
stdout: -0.149

stdin: Provide value of composite z-score for this record tested with XIP peptide (Xip251-270): CCOC(=O)C[C@H]1[C@H](OC(=O)c2cc3ccccc3oc2=O)[C@@H](NC(=O)Cc2ccc(OC)cc2)c2cc(OCCCO)ccc2N1C(=O)c1ccccc1
stdout: 0.853

stdin: Provide value of composite z-score for this record tested with XIP peptide (Xip251-270): COC(=O)c1c(CC[C@@H](CO)NC(=O)N2CCC[C@H]2Cn2cc(-c3ccccn3)nn2)oc(C(C)=O)c1C(=O)OC
stdout: 0.667

---

experiment: anti-His antibody binders, primary screen, artefact control for SMM control protein annotation, biochemical, small-molecule microarray, 635 nm fluorescence (AID 1128); settings: anti-His Alexa647 antibody binding, higher = more signal;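 note: score merges feature fluorescence with signal-to-noise for each printed compound spot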
Attribute measured: composite z-score
Quick one: just the number, no unit, thanks!

stdin: composite z-score for CN(C)CCCC[C@@H]1NC(=O)[C@H]2C[C@@H](C(=O)NCCCCCNC(=O)CS)[C@@H](c3cccc(OCCO)c3)N2C1=O ?
stdout: 1.32

stdin: composite z-score for CCC(CC)C(O)C1C=CC2C(=O)N(C)C(=O)C2N1Nc1ccccc1 (configuration not stated) ?
stdout: 1.02

stdin: composite z-score for CCCC#C[Si](O[C@H](CC)c1cn([C@H](CO)Cc2ccccc2)nn1)(C(C)C)C(C)C ?
stdout: 0.236

stdin: composite z-score for CCCN1C(=O)[C@]2(CCS(=O)(=O)c3ccccc3)N=C(c3ccc(OCCCO)cc3)O[C@@H]2c2ccccc21 ?
stdout: 1.02

stdin: composite z-score for C=CCNC(=O)[C@@H]1[C@H]2C(=O)O[C@H](c3ccccc3)[C@H](c3ccccc3)N2[C@H](c2ccc(OCCO)cc2)[C@@]12C(=O)Nc1ccc(C#Cc3ccc(OC)cc3)cc12 ?
stdout: 0.785

stdin: composite z-score for C=CCOC(=O)[C@@H]1[C@H]2C(=O)O[C@H](c3ccccc3)[C@H](c3ccccc3)N2[C@H](c2ccc(OCCOC(=O)[C@@H]3C[C@@H]4C(=O)N[C@@H](Cc5ccccc5)C(=O)N4[C@@H]3c3ccc(O)cc3)cc2)[C@@]12C(=O)Nc1ccc(I)cc12 ?
stdout: 1.11

stdin: composite z-score for CCCC=C(CCC)[C@@H](NC(=O)Oc1ccc(F)cc1)c1ccc(C(=O)OC)cc1 ?
stdout: 0.421

---

assay: yeast growth modulation, basal conditions, primary screen, YJM789 clinical isolate, OD600, 24 h (AID 1089);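 note: growth of clinical yeast isolate S. cerevisiae YJM 789 seeded 1000 cells per well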; settings: S. cerevisiae YJM789 growth, higher = more signal, called active from +8 up or from −8 down
Binned z-score; ranges: category 1: < -0.06; category 2: ≥ -0.06 and < 0.7; category 3: ≥ 0.7

stdin: Lab log: Cc1ccc(S[C@]2(C(=O)NCCN3CCOCC3)CC(=O)N(Cc3ccccc3Cl)[C@@H]2c2ccc(CO)cc2)cc1 — assign z-score category
stdout: category 1

stdin: Lab log: COCCOC(=O)N1C(=O)[C@@]2(c3cc(C#CC4(O)CCCCCC4)ccc31)[C@H](c1ccc(O)cc1)N1[C@H](c3ccccc3)[C@H](c3ccccc3)OC(=O)[C@H]1[C@@H]2C(=O)Nc1nc2ccccc2s1 — assign z-score category
stdout: category 3

stdin: Lab log: C#CCN(CC1=CCCCC1)[C@H](c1ccccc1Br)[C@@H](O)Cc1ccccc1 — assign z-score category
stdout: category 2

stdin: Lab log: COCCOC(=O)N1C(=O)[C@@]2(c3cc(C#CC4=CCCCC4)ccc31)[C@H](C(=O)N1CCc3cc(OC)c(OC)cc3C1)[C@H]1C(=O)O[C@H](c3ccccc3)[C@H](c3ccccc3)N1[C@@H]2c1ccc(OCCO)cc1 — assign z-score category
stdout: category 3

stdin: Lab log: COCCCNC(=O)C1N=C(c2ccc(OCCCO)cc2)N(c2ccccc2)O1 (centres undefined) — assign z-score category
stdout: category 2

stdin: Lab log: C=CCC(OC(C)=O)[C@@H]1[C@@H](N(Cc2ccc(-c3ccccc3)cc2)C(=O)Cc2ccc(F)cc2)c2cc(OCCCO)ccc2N1C(=O)c1ccc(-c2ccccc2)cc1 (some centres undefined) — assign z-score category
stdout: category 1

stdin: Lab log: C=CC[C@]1(C(=O)NCCCOC)N=C(c2ccc(OCCCO)cc2)O[C@H]1c1ccccc1N=[N+]=[N-] — assign z-score category
stdout: category 1

stdin: Lab log: COCCCNC(=O)[C@@]1(Cc2ccccc2N=[N+]=[N-])N=C(c2ccc(OCCCO)cc2)O[C@H]1c1ccccc1N=[N+]=[N-] — assign z-score category
stdout: category 2

stdin: Lab log: CCCC=C(CCC)[C@@H](NS(=O)(=O)c1cccs1)c1ccc(C(=O)OC)cc1 — assign z-score category
stdout: category 2

stdin: Lab log: COC(=O)[C@@]1(Cc2ccc(OC)cc2)[C@H]2c3cc(C(=O)N(C)C)n(CCN4CNCC4=O)c3C[C@H]2CN1C(=O)c1ccccc1 — assign z-score category
stdout: category 1

stdin: Lab log: NCCCCCNC(=O)[C@@H]1C[C@@H]2C(=O)N[C@@H](Cc3ccccc3)C(=O)N2[C@@H]1c1cccc(OCCO)c1 — assign z-score category
stdout: category 2

stdin: Lab log: C=CCNC(=O)[C@@H]1[C@H]2C(=O)O[C@H](c3ccccc3)[C@H](c3ccccc3)N2[C@H](c2ccc(OCCO)cc2)[C@@]12C(=O)Nc1ccc(C#Cc3ccc(OC)cc3)cc12 — assign z-score category
stdout: category 3

stdin: Lab log: CN(C)CCCNC(=O)[C@@]1(c2ccc([N+](=O)[O-])cc2)CC(=O)N(C2CCCCC2)[C@@H]1c1ccc(CO)cc1 — assign z-score category
stdout: category 3
